Answer each item with its documented Emax.
measured_on: von Hippel-Lindau disease tumor suppressor/Casein kinase I isoform delta (Homo sapiens, UniProt P48730+P40337)
Sequence (P40337 whole entry, looked up, the tested form may be a part, canonical isoform): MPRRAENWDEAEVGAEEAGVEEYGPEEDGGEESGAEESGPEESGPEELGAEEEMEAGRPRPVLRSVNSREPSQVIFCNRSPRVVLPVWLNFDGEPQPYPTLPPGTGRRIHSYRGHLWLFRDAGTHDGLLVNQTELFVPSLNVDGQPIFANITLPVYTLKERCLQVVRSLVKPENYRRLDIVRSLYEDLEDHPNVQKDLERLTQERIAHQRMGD
Sequence (P48730 whole entry, looked up, the tested form may be a part, canonical isoform): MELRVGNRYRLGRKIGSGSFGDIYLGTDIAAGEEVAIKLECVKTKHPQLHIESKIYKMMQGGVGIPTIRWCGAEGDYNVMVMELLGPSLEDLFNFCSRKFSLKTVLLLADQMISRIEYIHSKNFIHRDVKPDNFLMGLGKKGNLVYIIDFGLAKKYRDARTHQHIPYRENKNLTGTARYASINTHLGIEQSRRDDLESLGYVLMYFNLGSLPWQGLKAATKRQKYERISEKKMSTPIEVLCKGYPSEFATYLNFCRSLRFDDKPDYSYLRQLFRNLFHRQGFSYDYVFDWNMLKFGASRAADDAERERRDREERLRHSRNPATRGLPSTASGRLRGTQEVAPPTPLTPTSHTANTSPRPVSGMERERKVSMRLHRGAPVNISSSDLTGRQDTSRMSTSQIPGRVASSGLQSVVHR
assay_overview: PROTAC activity at VHL/Hibit-fused CK1 delta in human MV4-11 cells assessed as degradation of CK1-delta incubated for 6 hrs by Nano-Glo HiBiT assay relative to control
Assay type: cell-based
Give bare numbers, in %.

Cc1ncsc1-c1ccc(CNC(=O)[C@H]2C[C@H](O)CN2C(=O)[C@H](NC(=O)CCCCCCC(=O)N2CCC(F)(Cn3cnc(-c4ccc(F)cn4)c3-c3ccnc4[nH]ccc34)CC2)C(C)(C)C)cc1 = 70.1

Report Emax for each item below.
1. Cc1ncsc1-c1ccc(CNC(=O)[C@@H]2C[C@@H](O)CN2C(=O)[C@@H](NC(=O)Cc2ccc(CNC(=O)CN3CCC(F)(Cn4cnc(-c5ccc(F)cn5)c4-c4ccnc5[nH]ccc45)CC3)cc2)C(C)(C)C)cc1
2. Cc1ncsc1-c1ccc(CNC(=O)[C@@H]2C[C@@H](O)CN2C(=O)[C@@H](NC(=O)CCOCCOCCN2CCC(F)(Cn3cnc(-c4ccc(F)cn4)c3-c3ccnc4[nH]ccc34)CC2)C(C)(C)C)cc1

1: 19.1; 2: 50.8

Can you share its Emax? I mean this compound: Cc1ncsc1-c1ccc(CNC(=O)[C@@H]2C[C@@H](O)CN2C(=O)[C@@H](NC(=O)CC2CCN(C(=O)CN3CCC(F)(Cn4cnc(-c5ccc(F)cn5)c4-c4ccnc5[nH]ccc45)CC3)CC2)C(C)(C)C)cc1 29.1

----------
measured_on: von Hippel-Lindau disease tumor suppressor/Casein kinase I isoform delta (Homo sapiens, UniProt P48730+P40337)
assay_overview: PROTAC activity at VHL/Hibit-fused CK1 delta in human MV4-11 cells assessed as degradation of CK1-delta incubated for 6 hrs by Nano-Glo HiBiT assay relative to control
Type: cell-based
readout_type: Emax (%)
Give bare numbers, in %.

Cc1ncsc1-c1ccc(CNC(=O)[C@@H]2C[C@@H](O)CN2C(=O)[C@@H](NC(=O)CC2CN(C(=O)CN3CCC(F)(Cn4cnc(-c5ccc(F)cn5)c4-c4ccnc5[nH]ccc45)CC3)C2)C(C)(C)C)cc1 = 21.7

As a next step, examine the compound that follows.
Can you share its Emax? I mean this compound: Cc1ncsc1-c1ccc(CNC(=O)[C@@H]2C[C@@H](O)CN2C(=O)[C@@H](NC(=O)CCOCCOCCOCCN2CCC(F)(Cn3cnc(-c4ccc(F)cn4)c3-c3ccnc4[nH]ccc34)CC2)C(C)(C)C)cc1 35

----------
Answer each item with its documented Emax.
measured_on: Cereblon/Casein kinase I alpha (Homo sapiens) (UniProt P48729+Q96SW2)
Sequence (P48729 2-337 limits assumed): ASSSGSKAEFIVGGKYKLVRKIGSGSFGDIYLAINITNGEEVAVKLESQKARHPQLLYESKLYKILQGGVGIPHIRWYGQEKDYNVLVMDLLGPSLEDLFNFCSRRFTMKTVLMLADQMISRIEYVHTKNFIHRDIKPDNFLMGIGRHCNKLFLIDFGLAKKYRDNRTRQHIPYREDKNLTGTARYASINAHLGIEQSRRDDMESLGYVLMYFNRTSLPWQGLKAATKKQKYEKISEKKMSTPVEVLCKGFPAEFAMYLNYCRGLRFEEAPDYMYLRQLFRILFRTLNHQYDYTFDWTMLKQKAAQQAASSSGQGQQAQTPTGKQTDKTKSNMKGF
Sequence (Q96SW2 whole entry partner, the tested form may be a part): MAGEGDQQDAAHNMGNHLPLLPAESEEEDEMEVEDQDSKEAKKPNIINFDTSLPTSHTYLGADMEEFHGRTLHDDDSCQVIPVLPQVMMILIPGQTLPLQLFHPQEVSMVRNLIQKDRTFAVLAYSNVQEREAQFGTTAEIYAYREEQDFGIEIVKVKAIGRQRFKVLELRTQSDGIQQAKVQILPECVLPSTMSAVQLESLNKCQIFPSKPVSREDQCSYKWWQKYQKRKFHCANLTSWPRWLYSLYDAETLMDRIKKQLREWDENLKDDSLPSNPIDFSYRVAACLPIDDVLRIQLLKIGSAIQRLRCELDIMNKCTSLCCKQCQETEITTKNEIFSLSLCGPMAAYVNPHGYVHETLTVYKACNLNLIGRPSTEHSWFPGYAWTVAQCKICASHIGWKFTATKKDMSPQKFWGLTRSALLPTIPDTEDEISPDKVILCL
assay_overview: PROTAC activity at CRBN/Hibit-fused CK1 alpha in human MV4-11 cells assessed as degradation of CK1-alpha incubated for 6 hrs by Nano-Glo HiBiT assay relative to control
Assay type: cell-based
Numbers only, in %.

O=C(CCOCCOCCOCCN1CCC(F)(Cn2cnc(-c3ccc(F)cn3)c2-c2ccnc3[nH]ccc23)CC1)NCCNc1cccc2c1C(=O)N(C1CCC(=O)NC1=O)C2=O (stereo not given) = 20.2
O=C(COc1cccc2c1C(=O)N(C1CCC(=O)NC1=O)C2=O)NCCOCCOCCOCCC(=O)N1CCC(F)(Cn2cnc(-c3ccc(F)cn3)c2-c2ccnc3[nH]ccc23)CC1 (stereo not given) = 12.6

Can you share its Emax? I mean this molecule: O=C1CCC(N2C(=O)c3cccc(NCCOCCOCCOCCC(=O)N4CCC(F)(Cn5cnc(-c6ccc(F)cn6)c5-c5ccnc6[nH]ccc56)CC4)c3C2=O)C(=O)N1 (stereo not given) 16.1
